Hello, the source for this data is paper PMC12951562, in case you need it.

biological target: SHB (Homo sapiens, UniProt Q15464); construct: made in house; host or cells: HEK293 (transient transfection), unpurified extract; test: biochemical; type: binding; conditions: primary screen, 10 μM; read-out: percent of DMSO vehicle control
Sequence (Q15464 whole entry): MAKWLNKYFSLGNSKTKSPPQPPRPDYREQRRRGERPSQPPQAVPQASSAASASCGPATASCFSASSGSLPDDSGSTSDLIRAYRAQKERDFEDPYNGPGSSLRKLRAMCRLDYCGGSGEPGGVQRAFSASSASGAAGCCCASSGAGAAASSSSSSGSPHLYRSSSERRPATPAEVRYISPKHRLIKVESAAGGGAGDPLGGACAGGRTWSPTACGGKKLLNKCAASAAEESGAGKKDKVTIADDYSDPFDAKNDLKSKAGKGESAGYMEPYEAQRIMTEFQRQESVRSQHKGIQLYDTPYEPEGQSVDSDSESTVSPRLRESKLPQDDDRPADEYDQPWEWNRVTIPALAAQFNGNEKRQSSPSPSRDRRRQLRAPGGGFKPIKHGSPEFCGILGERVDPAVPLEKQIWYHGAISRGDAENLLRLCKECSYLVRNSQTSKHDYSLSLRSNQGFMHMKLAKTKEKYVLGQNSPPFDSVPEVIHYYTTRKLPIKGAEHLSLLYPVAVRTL
Reported Property: remaining activity at 10 µM (%)

1) CC(C)(C)[C@H](NC(=O)/C=C/c1ccc(OP(=O)(O)O)cc1)C(=O)N1CCC[C@H]1C(=O)N(c1ccccc1)c1ccc(I)cc1 [STAT6-IN-3]: 53.4
2) O=C(CCl)Nc1cccc(CNC(=O)[C@H](Cc2ccc(OP(=O)(O)O)cc2)NC(=O)Cc2ccc(F)cc2)c1 [MN551]: 102
3) C/C(=C\C(=O)N[C@H](C(=O)N1CCC[C@H]1C(=O)N(c1ccccc1)c1ccc(I)cc1)C(C)(C)C)c1ccc(OP(=O)(O)O)cc1 [STAT6-IN-1]: 28.7
4) O=C(COc1ccc2cc(C(=O)Nc3ccccc3)ccc2c1)NCc1ccc(OP(=O)(O)O)c(OP(=O)(O)O)c1 [Stafib-1]: 114

* * *

Kd overview
target: HSH2D (Homo sapiens, UniProt Q96JZ2); construct: the DNA-tagged SH2 domain concentrations used in this study were <0.1 nM; made in house; host or cells: HEK293 (transient transfection, unpurified extract); test: biochemical; type: binding; settings: dose-response; read-out: KD
Sequence (Q96JZ2 34-125 limits assumed): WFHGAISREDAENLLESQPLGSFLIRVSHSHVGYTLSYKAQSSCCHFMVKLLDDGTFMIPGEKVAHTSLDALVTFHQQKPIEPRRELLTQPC
Reported Property: Kd (µM)

1. CC(C)(C)[C@H](NC(=O)/C=C/c1ccc(OP(=O)(O)O)cc1)C(=O)N1CCC[C@H]1C(=O)N(c1ccccc1)c1ccc(I)cc1: 7.6
2. O=C(CCl)Nc1cccc(CNC(=O)[C@H](Cc2ccc(OP(=O)(O)O)cc2)NC(=O)Cc2ccc(F)cc2)c1: 8.7

* * *

remaining activity at 10 µM overview
biological target: FES (Homo sapiens, UniProt P07332); construct: the DNA-tagged SH2 domain concentrations used in this study were <0.1 nM; made in house; host or cells: HEK293 (transient transfection; unpurified extract); test: biochemical; format: binding; conditions: primary screen, 10 μM; read-out: percent of DMSO vehicle control
Sequence (P07332 460-549 limits assumed): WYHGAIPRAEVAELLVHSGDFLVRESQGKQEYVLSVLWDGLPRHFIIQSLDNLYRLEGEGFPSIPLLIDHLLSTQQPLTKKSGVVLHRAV
Reported Property: remaining activity at 10 µM (%)

1. C/C(=C\C(=O)N[C@H](C(=O)N1CCC[C@H]1C(=O)N(c1ccccc1)c1ccc(I)cc1)C(C)(C)C)c1ccc(OP(=O)(O)O)cc1 [STAT6-IN-1]: 66.3
2. O=C(COc1ccc2cc(C(=O)Nc3ccccc3)ccc2c1)NCc1ccc(OP(=O)(O)O)c(OP(=O)(O)O)c1 [Stafib-1]: 116
3. O=C(CCl)Nc1cccc(CNC(=O)[C@H](Cc2ccc(OP(=O)(O)O)cc2)NC(=O)Cc2ccc(F)cc2)c1 [MN551]: 82.1
4. CC(C)(C)[C@H](NC(=O)/C=C/c1ccc(OP(=O)(O)O)cc1)C(=O)N1CCC[C@H]1C(=O)N(c1ccccc1)c1ccc(I)cc1 [STAT6-IN-3]: 82

* * *

Molecular target: SHC3 (Homo sapiens, UniProt Q92529)
Construct: made in house; host or cells: HEK293 (transient transfection), unpurified extract
Sequence (Q92529 1-594): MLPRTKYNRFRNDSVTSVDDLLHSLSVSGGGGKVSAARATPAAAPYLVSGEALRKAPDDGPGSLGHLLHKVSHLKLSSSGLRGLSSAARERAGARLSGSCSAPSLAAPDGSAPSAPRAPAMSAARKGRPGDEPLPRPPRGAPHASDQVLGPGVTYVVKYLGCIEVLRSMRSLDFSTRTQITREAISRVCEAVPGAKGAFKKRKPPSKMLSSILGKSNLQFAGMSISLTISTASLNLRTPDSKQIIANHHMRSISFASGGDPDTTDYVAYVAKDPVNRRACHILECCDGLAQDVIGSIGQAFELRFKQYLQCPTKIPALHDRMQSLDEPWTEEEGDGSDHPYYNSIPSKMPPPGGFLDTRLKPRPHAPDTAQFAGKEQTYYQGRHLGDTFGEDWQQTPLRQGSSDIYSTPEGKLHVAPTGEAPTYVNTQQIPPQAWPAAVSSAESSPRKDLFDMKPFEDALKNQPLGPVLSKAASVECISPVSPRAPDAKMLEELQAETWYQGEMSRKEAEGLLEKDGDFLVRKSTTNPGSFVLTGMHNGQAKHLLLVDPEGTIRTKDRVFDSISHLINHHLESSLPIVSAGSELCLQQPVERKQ
Test: biochemical
Format: binding
Details: primary screen, 10 μM; read-out: percent of DMSO vehicle control
Reported Property: remaining activity at 10 µM (%)

1. CC(C)(C)[C@H](NC(=O)/C=C/c1ccc(OP(=O)(O)O)cc1)C(=O)N1CCC[C@H]1C(=O)N(c1ccccc1)c1ccc(I)cc1: 50.6
2. C/C(=C\C(=O)N[C@H](C(=O)N1CCC[C@H]1C(=O)N(c1ccccc1)c1ccc(I)cc1)C(C)(C)C)c1ccc(OP(=O)(O)O)cc1: 35.3
3. O=C(CCl)Nc1cccc(CNC(=O)[C@H](Cc2ccc(OP(=O)(O)O)cc2)NC(=O)Cc2ccc(F)cc2)c1: 91.2
4. O=C(COc1ccc2cc(C(=O)Nc3ccccc3)ccc2c1)NCc1ccc(OP(=O)(O)O)c(OP(=O)(O)O)c1: 87
